The reported measurements were obtained from ChEMBL document CHEMBL1641427.

Assay: Intrinsic clearance in mouse microsome by LC-MS/MS analysis in presence of NADPH
Type: ADME
Settings: mouse microsomes
Measured attribute: CLint scaled (mL/min/kg)
Report the value in mL/min/kg with no unit label.

Compound | Unit symbol | CLint scaled
Cc1cc(SCc2cc(=O)[nH][nH]2)c(C)cc1Cl | mL/min/kg | 242

Let us examine a further case.
Would you kindly share the measured CLint scaled for Cc1cc(SCC2=NNC(=O)/C2=C\N(C)C)c(Cl)cc1Cl ?
924

* * *

Experiment: Drug level in Tg6799 mouse brain measured per gram of tissue at 1 mg/kg, ip after 10 mins by LC-MS/MS analysis
Format: ADME, organism-based
Set-up: dose 1 mg/kg, route intraperitoneal
Conditions: read-out: Drug uptake
Measured attribute: concentration at 10 min (ng/g)
Report the value in ng/g with no unit label.

Would you kindly share the measured concentration at 10 min for Cc1cc(SCc2cc(=O)[nH][nH]2)c(C)cc1Cl ?
360

* * *

Experiment: Permeability from basolateral to apical side of human Caco2 cells after 2 hrs
Format: ADME, cell-based, Caco-2
Details: Caco-2
Measured attribute: Papp B→A at 2 h (×10⁻⁶ cm/s)
Report the value in ×10⁻⁶ cm/s with no unit label.

Would you kindly share the measured Papp B→A at 2 h for CNC(=C[N+](=O)[O-])NCCSCc1ccc(CN(C)C)o1 [RANITIDINE] ?
0.6

* * *

// reported CLint scaled per item
Assay: Intrinsic clearance in mouse microsome by LC-MS/MS analysis
Format: ADME
Conditions: mouse microsomes
Report the value in mL/min/kg with no unit label.

Record excerpt, results attached:
Compound | Measured attribute | Experimental result
CC(=O)CC(c1ccccc1)c1c(O)c2ccccc2oc1=O (stereo not drawn) | CLint scaled | 6
Cc1cc(SCC2=NNC(=O)/C2=C\N(C)C)c(Cl)cc1Cl | CLint scaled | 135

Let us examine a further case.
Would you kindly share the measured CLint scaled for Cc1cc(SCc2cc(=O)[nH][nH]2)c(C)cc1Cl ?
63
